Test system: RPMI-8226
Assay: NCI tumour cell line growth inhibition, 48 h
The source made the active and inactive calls. No stated cut-off is given here; in the data, active = GI50 up to about 1.1 µM and inactive = higher. Square brackets hold non-standard residues; d marks the D form. Peptide text beside a SMILES is read from it. * marks the point of attachment. Boc = CC(C)(C)OC(=O)*; Lac = C[CH](O)C(=O)O; OBn = c1ccc(CO*)cc1
Labels: 1 = active, 0 = inactive

• Cc1cc(=O)oc2cc(OS(C)(=O)=O)ccc12 = 0
• CC(C)(CCCCC(C)(C)[N+](C)(C)C)[N+](C)(C)C = 0
• CN(C)Cc1cc(C(F)(F)F)ccc1C(O)(c1ccccc1)c1ccccc1 = 0
• Cn1c(=S)c2nc(SCCN3CCCC3)[nH]c2n(C)c1=O = 0
• CC1(C2(C)OC(=O)c3ccccc32)OC(=O)c2ccccc21 (configuration not stated) = 0
• C=CCC12CCC(=O)[C@@]1(C)CC=C(O)C2=O (some centres not stated) = 0
• O=c1c2ncn(COCCCl)c2n(-c2ccccc2)c(=S)n1-c1ccccc1 = 0
• CC[C@]1(O)C(=O)OCc2c1cc1n(c2=O)Cc2cc3c(N)cccc3nc2-1 = 0
• CCOC(=O)C(=CNC(=S)Nc1c(CC)cccc1CC)C(=O)OCC = 0
• COc1ccccc1/C=C1\CCC(CCN(C)C)(C2=CCCC2)C1=O (configuration not stated) = 0
• O=C(NN1C(=O)CSC1c1cccc(F)c1)c1ccncc1 (configuration not stated) = 0
• Cc1ccc(S(=O)(=O)N/N=C2\CCCCCCCCCCC2CN(C)C)cc1 (configuration not stated) = 0
• N#Cc1c2c(c(Nc3cccc(C(F)(F)F)c3)n3c1nc1ccccc13)CCCC2 = 0
• COc1c(Cl)c(Cl)c(OC)c2c1C(=O)C=CC2=O = 0
• O=c1c2cc(Cl)ccc2sc2cccc(Cl)c12 = 0
• CC(OC(=O)C(Cc1ccccc1)NC(=O)C(Cc1ccccc1)NC(=O)OC(C)(C)C)C(=O)OCc1ccccc1 (stereo not drawn) (Boc-Phe-Phe-[Lac]-OBn; configuration not given here) = 0
• COc1ccccc1C(=O)c1c(NCc2ccccc2)c(=O)c1=O = 0
• CCCNC(=S)N/C=C1\C(=O)Nc2ccccc2C1=O = 0
• NC(=O)/N=C1/CCC2C3CCCC2C13 = 0
• Cc1cc(N(C)C)c2ccccc2[n+]1CCCCCCCCCC[n+]1c(C)cc(N(C)C)c2ccccc21.[O-][Cl+3]([O-])([O-])[O-].[O-][Cl+3]([O-])([O-])[O-] = 1
• CN1CN(c2ccccc2)C2(CCN(CCCSc3ccccc3NC(=O)/C=C/c3ccccc3)CC2)C1=O = 0
• COC1=CC(=O)C[C@@H](C)[C@]12Oc1c(Cl)c(OC)cc(OC)c1C2=O = 0
